assay: Ascending multiple dose pharmacokinetics of enteric coated capsules in healthy subjects; type: in vivo, human; settings: human, plasma, oral, healthy subjects, single and multiple dose administration, enteric-coated formulation, 25-250 mg; read-out: mean Tmax
measured_endpoint: Tmax

Could you tell me which Tmax is on file for Cl.c1cc2c3c(c1)[C@H]1CCC[C@H]1CN3CCNC2 [Compound A.HCl] ? 4 to 6 h

====

experiment: Ascending multiple dose pharmacokinetics of enteric coated capsules in healthy subjects; format: in vivo, human; conditions: human, plasma, oral, multiple dose; read-out: mean elimination t1/2
measured_endpoint: half-life

Could you tell me which half-life is on file for Cl.c1cc2c3c(c1)[C@H]1CCC[C@H]1CN3CCNC2 [Compound A.HCl] ? 6 to 8 h
